# experimental-setup: Ebola virus entry assay, ratio channel
Active and inactive are the calls of the source.
Hi there, use one of these labels in your reply, thanks! active, inactive

What was the test verdict on CC(=O)c1cc2ccccc2s1 ?
inactive

* * *

# assay-summary: Primary qHTS for inhibitors of SARS-S pseudo-typed particle cell entry (AID 1479145); note: nearly all actives have a fitted effect of over 45% in size; for activity change, negative = inhibition: % is set by controls: 0 for no effect and ±100 for the full control effect
# experimental-setup: SARS-S pseudotyped particle cell entry, luciferase reporter; series mostly up to 57.1 µM
Inconclusive results are not listed. Active and inactive are the calls of the source. The call rests on the fitted dose curve.
property-measured: activity change, negative = inhibition

Past entries and their recorded results:
compound: CSCC[C@H](NC(=O)[C@H](Cc1ccc(OS(=O)(=O)O)cc1)NC(=O)[C@@H](N)CC(=O)O)C(=O)NCC(=O)N[C@@H](Cc1c[nH]c2ccccc12)C(=O)N[C@@H](CCSC)C(=O)N[C@@H](CC(=O)O)C(=O)N[C@@H](Cc1ccccc1)C(N)=O
activity change, negative = inhibition: inactive

compound: CC(=O)OCC(=O)[C@@]1(OC(C)=O)[C@@H](C)C[C@H]2[C@@H]3C[C@H](F)C4=CC(=O)C=C[C@]4(C)[C@@]3(F)[C@@H](O)C[C@@]21C
activity change, negative = inhibition: inactive

compound: CO[C@@]1(NC(=O)Cc2cccs2)C(=O)N2C(C(=O)O)=C(COC(N)=O)CS[C@@H]21
activity change, negative = inhibition: inactive

compound: CC(=O)NCc1c(I)c(NC(C)=O)c(I)c(C(=O)O)c1I
activity change, negative = inhibition: inactive

compound: CC1(C)O[C@@H]2C[C@H]3[C@@H]4CCC5=CC(=O)C=C[C@]5(C)[C@@H]4[C@@H](O)C[C@]3(C)[C@]2(C(=O)CO)O1
activity change, negative = inhibition: inactive

compound: CC(=O)SCC(CC(=O)c1ccc(C)cc1)C(=O)O (configuration not stated)
activity change, negative = inhibition: inactive

Shift focus to the following entry.
Which activity change, negative = inhibition value is on record for Nc1ccc([As](=O)(O)O)cc1 ?
inactive

* * *

# assay-summary: High-throughput drug toxicity screening in the BPDCN cell line Gen2.2 (AID 1224824);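 note: cells exposed to compounds for 48 h before reading; 100% = DMSO and 0% = bortezomib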
# experimental-setup: Gen2.2 BPDCN cells; at 45.8 µM (top of the series) unless noted
property-measured: cell viability, % of control (lower = more cytotoxic) (%)
One number for each entry, in %.

Past entries and their recorded results:
compound: CN1C(=O)CCS(=O)(=O)C1c1ccc(Cl)cc1 (stereo unspecified)
numeric-result: 143
//
compound: CN1C(=O)COc2c(C(=O)NC3CN4CCC3CC4)cc(Cl)cc21 (stereo unspecified)
numeric-result: 212
//
compound: CC(C)C[C@H](CN)CC(=O)O
numeric-result: 401
//
compound: C[C@](O)(CS(=O)(=O)c1ccc(F)cc1)C(=O)Nc1ccc(C#N)c(C(F)(F)F)c1
numeric-result: 14

Shift focus to the following entry.
Which cell viability, % of control (lower = more cytotoxic) value is on record for O=C(O)CCCc1ccc(N(CCCl)CCCl)cc1 ?
84.6

* * *

# assay-summary: qHTS of pediatric cancer cell lines to identify multiple opportunities for drug repurposing: Primary screen for OHS-50 cells (AID 1347103); note: nearly all actives have a fitted effect of over 40% in size; note: potency is the fitted concentration of half-maximal effect
# experimental-setup: OHS-50 osteosarcoma viability, CellTiter-Glo luminescence, 48 h; series mostly up to 57.3 µM
# Description: Drug repurposing or repositioning has been offered as a strategy for drug development in oncology programs. […] [1] Shen, M et al. Quantitative high-throughput phenotypic screening of pediatric cancer cell lines identifies multiple opportunities for drug repurposing. […] Cells were assayed in growth media at a density of 500-1,000 cells/well. […] After a 15 min incubation at room temperature, samples were analyzed for luminescence intensity using a ViewLux High-throughput CCD imager equipped with clear filters.
Records with an inconclusive call do not appear. Activity calls are given as the source filed them. The call rests on the fitted dose curve; in most records, active means well fitted cell-killing curve with a large enough effect; inconclusive means small, poorly fitted or top-dose-only effect; inactive means no such curve, though single readings can be large or run the other way.
property-measured: Potency

compound: CCC1(c2ccc(N)cc2)CCC(=O)NC1=O (stereo unspecified)
Potency: inactive
//
compound: O=c1[nH]oc2c1CCNC2
Potency: inactive
//
compound: C=CCN1C[C@H](C)N([C@H](c2ccc(C(=O)N(CC)CC)cc2)c2cccc(OC)c2)C[C@H]1C
Potency: inactive
//
compound: CCCCCCCCCC(=O)O[C@H]1CC[C@H]2[C@@H]3CCC4=CC(=O)CC[C@@H]4[C@H]3CC[C@]12C
Potency: inactive
//
compound: CC(C)N(CCC(C(N)=O)(c1ccccc1)c1ccccn1)C(C)C (stereo unspecified)
Potency: inactive
//
compound: C[C@]12CC[C@H]3[C@@H](CC[C@@]45O[C@H]4C(O)=C(C#N)C[C@]35C)[C@H]1CC[C@H]2O
Potency: inactive
//
compound: CC(C)C[C@H](CN)CC(=O)O
Potency: inactive
//
compound: CCC(CC)(CNC(=O)CCCO)c1cccc(OC)c1
Potency: inactive

Take each entry in turn and give its Potency.
1. C[C@]12CCC(=O)C=C1CC[C@@H]1[C@H]3CC[C@](C)(O)[C@@]3(C)CC[C@@H]12
2. CCN[C@@H](C)Cc1ccccc1
3. O=C(Nc1ccc(Br)cc1)c1cc(Br)cc(Br)c1O

1. 25.5 µM (active)
2. inactive
3. 21.9 µM (active)
